B1: OR4K15 (parent)
chain: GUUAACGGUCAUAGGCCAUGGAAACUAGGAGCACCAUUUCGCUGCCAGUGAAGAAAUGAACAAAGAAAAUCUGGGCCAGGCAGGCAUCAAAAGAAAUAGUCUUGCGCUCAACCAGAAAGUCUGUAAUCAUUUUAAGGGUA

variants of: B1; assay: self-cleavage, relative activity (ratio to wild type); higher = more cleavage; in vitro, sequencing; the parent is a self-cleaving ribozyme
reported property: self-cleavage

Exercise: Look up self-cleavage for this variant: A22U A67G
Key: 1.87

Exercise: Look up self-cleavage for this variant: A22U A96G
Key: 1.57

Exercise: Look up self-cleavage for this variant: G15U A126U
Key: 0.79

Each recorded value in this set is attributed to the RNAGym collection of RNA variant scans (doi:10.7554/elife.90254).
